Values were extracted from paper PMC10786891.

tgt: T1, EsCas13d, nuclease-dead (Eubacterium siraeum, UniProt B0MS50, R295A;H300A;R849A;H854A)
T1 sequence: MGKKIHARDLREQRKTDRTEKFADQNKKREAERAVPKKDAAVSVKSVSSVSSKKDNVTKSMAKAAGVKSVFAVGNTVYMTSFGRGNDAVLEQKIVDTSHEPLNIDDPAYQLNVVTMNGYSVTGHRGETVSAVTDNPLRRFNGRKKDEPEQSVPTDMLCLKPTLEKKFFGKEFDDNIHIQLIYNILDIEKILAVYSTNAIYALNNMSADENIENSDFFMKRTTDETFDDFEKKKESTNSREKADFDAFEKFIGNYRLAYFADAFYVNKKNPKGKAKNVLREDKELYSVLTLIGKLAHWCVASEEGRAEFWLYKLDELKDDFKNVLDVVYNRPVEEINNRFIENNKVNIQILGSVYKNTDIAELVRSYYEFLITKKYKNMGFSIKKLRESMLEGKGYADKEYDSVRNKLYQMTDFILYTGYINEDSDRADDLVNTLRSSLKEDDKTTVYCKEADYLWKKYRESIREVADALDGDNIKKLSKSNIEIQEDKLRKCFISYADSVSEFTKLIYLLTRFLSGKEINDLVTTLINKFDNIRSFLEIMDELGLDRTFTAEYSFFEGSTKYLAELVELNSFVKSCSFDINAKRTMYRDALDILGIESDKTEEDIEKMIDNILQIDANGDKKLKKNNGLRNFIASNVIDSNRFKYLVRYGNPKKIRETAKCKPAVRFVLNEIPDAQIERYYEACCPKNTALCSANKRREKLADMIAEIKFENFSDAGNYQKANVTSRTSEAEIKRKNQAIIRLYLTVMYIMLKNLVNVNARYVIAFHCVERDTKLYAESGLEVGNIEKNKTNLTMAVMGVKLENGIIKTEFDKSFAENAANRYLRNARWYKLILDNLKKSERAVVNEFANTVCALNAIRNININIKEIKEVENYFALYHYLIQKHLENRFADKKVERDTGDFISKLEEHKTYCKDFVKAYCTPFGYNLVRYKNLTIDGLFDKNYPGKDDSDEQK
test details: crRNA (strand 1, pre-loaded); Mg2+; 40 mM Tris-HCl pH 7.5, 150 mM NaCl, 6 mM MgCl2, 1 mM DTT, 0.1% Tween-20, 0.2 mg/ml BSA; 25 C; 10 min per concentration, then washed
protocol conditions: tags: His6-TwinStrep-SUMO cleaved; N-terminal SNAP kept (SNAP-Surface 488); label: 3' end held by stalled T7 RNA polymerase
Labelling: Kd reported below 8 nM becomes True; at or above becomes False.

target 1 MT 5'PFS UGU 3'PFS CUU (mixed) RNA 1: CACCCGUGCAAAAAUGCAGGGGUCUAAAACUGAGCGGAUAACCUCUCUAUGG RNA 2: GGGAAUGGAUCCACAUCUACGAAUUCUGUCCAUAGAGAGGUUAUCCGCUCACUUAGAUCGGAAGAGCACACGU :: False
target 1 insA 3' of 4 (mixed) RNA 1: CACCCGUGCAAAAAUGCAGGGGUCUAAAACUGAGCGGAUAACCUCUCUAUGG RNA 2: GGGAAUGGAUCCACAUCUACGAAUUCGUACCAUAGAGAGGUUAUCCGCAUCACCGAGAUCGGAAGAGCACACGU :: False
target 2 MT 5'PFS GAA 3'PFS CCG (mixed) RNA 1: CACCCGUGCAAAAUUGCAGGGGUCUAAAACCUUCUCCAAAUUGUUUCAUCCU RNA 2: GGGAAUGGAUCCACAUCUACGAAUUCGAAAGGAUGAAACAAUUUGGAGAAGCCGAGAUCGGAAGAGCACACGU :: False

Incoming: Is it true that Kd reported for target 3 U7C (mixed) RNA 1: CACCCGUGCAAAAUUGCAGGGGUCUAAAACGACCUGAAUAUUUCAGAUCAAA RNA 2: GGGAAUGGAUCCACAUCUACGAAUUCGUUUUUGAUCUGAAAUAUCCAGGUCUGCAGAUCGGAAGAGCACACGU is less than 8 nM?
Outgoing: False

Incoming: Is it true that Kd reported for target 2 MT 5'PFS GAG 3'PFS UGC (mixed) RNA 1: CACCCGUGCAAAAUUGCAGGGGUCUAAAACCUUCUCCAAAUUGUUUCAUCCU RNA 2: GGGAAUGGAUCCACAUCUACGAAUUCGAGAGGAUGAAACAAUUUGGAGAAGUGCAGAUCGGAAGAGCACACGU is less than 8 nM?
Outgoing: True
